# Measured target: Beta-2 adrenergic receptor (Rattus norvegicus)
# Measurement protocol: Agonist activity at beta2-adrenergic receptor in rat L6 cells transfected with GLUT4 assessed as stimulation of skeletal muscle glucose uptake at 10 uM relative to isoprenaline
# Type: functional, cell-based
Readings of Activity for the listed molecules
Kindly answer with a numeric value in %, unit omitted.

CCC[C@H]1CC[C@@H]([C@H](O)c2cccc(F)c2)N1 | 27
CCC[C@H]1CC[C@H]([C@@H](O)c2cccc(F)c2)N1 | 20
CCC[C@H]1CCCC[C@@H]([C@@H](O)c2cccc(F)c2)N1 | 39
CCC[C@H]1C[C@@H]([C@H](O)c2cccc(F)c2)N1 | 19
CCC[C@@H]1CCCC[C@H]([C@H](O)c2cccc(F)c2)N1 | 39
CCC[C@@H]1CCCC[C@@H]([C@H](O)c2cccc(F)c2)N1 | 12

Task: // Input: "CCC[C@H]1C[C@H]([C@@H](O)c2cccc(F)c2)N1" . Output its Activity only.
Output: 37

Task: // Input: "CCC[C@@H]1C[C@@H]([C@H](O)c2cccc(F)c2)N1" . Output its Activity only.
Output: 31

Task: // Input: "CCC[C@H](C)NC[C@@H](O)c1cccc(O)c1" . Output its Activity only.
Output: 32

Task: // Input: "CCC[C@H]1CCCC[C@@H]([C@H](O)c2cccc(F)c2)N1" . Output its Activity only.
Output: 19

Task: // Input: "CCC[C@H]1CCCC[C@H]([C@@H](O)c2cccc(F)c2)N1" . Output its Activity only.
Output: 15
